The measurements presented in this section are drawn from patent US20180273528A1.

target: His-TEV-DYRK1A Kinase domain (aa127-485) (Homo sapiens, UniProt Q13627); construct: His-TEV-DYRK1A Kinase domain (aa127-485); His tag (N); TEV protease cleavage site (N); test: Kinase ADP assay (ADP Hunter), DYRK1A kinase domain; format: biochemical; details: 20 μM ATP
assay.metric: IC50 (µM)

{"columns": ["molecule", "IC50 / µM"],
 "data": [
  ["Cc1nc2ccc(-c3cc(N)nc(N)c3)nc2n1CCOc1cccc(Cl)c1 [Example 200]", 0.018],
  ["COc1ccccc1O[C@@H](C)Cn1c(C)nc2ccc(-c3cc(N)nc(N)c3)nc21 (single isomer, unassigned) [Example 141]", 0.01],
  ["Cc1nc2ccc(-c3cc(N)nc(N)c3)nc2n1C[C@@H](C)Oc1nc(F)ccc1F (single isomer, unassigned) [Example 193]", 0.028],
  ["Cc1nc2ccc(-c3cc(N)nc(N)c3)nc2n1CC(C)(C)Oc1ccccc1 [Example 116]", 0.056]
]}

[1] Cc1nc2ccc(-c3cc(N)nc(N)c3)nc2n1C1CC(F)(F)C1 [Example 101]
[2] Cc1nc2ccc(-c3cc(N)nc(N)c3)nc2n1Cc1ccc(OC(F)F)cc1 [Example 43]
Recorded IC50 values differ for 1 and 2 ; which one is higher? In your reply, give the label of the chosen option. 2
(2: 0.109 µM, 1: 0.006 µM)
